Biological target: STK16 (human) (UniProt O75716)
Sequence (O75716 whole entry, looked up): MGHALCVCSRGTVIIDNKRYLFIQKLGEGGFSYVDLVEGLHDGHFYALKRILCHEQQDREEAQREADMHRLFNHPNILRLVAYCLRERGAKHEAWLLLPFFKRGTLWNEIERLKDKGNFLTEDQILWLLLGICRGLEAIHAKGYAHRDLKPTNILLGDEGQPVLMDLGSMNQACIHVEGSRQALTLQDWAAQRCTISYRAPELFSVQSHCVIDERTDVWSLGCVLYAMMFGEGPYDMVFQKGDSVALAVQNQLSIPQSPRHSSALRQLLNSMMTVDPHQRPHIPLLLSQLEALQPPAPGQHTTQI
Experiment: radiometric filter-binding kinase assay
Conditions: compound 10.0 µM
Property: residual activity (%)

a. COC(=O)/C=C/C(=O)OC
b. Cc1nc(-c2ccc(OCC(C)C)c(C#N)c2)sc1C(=O)O
Smaller residual activity value, a vs b ? Indicate which entry you chose by stating its label.
b

###

Target: ULK2 (human) (UniProt Q8IYT8)
Sequence (Q8IYT8 whole entry, looked up): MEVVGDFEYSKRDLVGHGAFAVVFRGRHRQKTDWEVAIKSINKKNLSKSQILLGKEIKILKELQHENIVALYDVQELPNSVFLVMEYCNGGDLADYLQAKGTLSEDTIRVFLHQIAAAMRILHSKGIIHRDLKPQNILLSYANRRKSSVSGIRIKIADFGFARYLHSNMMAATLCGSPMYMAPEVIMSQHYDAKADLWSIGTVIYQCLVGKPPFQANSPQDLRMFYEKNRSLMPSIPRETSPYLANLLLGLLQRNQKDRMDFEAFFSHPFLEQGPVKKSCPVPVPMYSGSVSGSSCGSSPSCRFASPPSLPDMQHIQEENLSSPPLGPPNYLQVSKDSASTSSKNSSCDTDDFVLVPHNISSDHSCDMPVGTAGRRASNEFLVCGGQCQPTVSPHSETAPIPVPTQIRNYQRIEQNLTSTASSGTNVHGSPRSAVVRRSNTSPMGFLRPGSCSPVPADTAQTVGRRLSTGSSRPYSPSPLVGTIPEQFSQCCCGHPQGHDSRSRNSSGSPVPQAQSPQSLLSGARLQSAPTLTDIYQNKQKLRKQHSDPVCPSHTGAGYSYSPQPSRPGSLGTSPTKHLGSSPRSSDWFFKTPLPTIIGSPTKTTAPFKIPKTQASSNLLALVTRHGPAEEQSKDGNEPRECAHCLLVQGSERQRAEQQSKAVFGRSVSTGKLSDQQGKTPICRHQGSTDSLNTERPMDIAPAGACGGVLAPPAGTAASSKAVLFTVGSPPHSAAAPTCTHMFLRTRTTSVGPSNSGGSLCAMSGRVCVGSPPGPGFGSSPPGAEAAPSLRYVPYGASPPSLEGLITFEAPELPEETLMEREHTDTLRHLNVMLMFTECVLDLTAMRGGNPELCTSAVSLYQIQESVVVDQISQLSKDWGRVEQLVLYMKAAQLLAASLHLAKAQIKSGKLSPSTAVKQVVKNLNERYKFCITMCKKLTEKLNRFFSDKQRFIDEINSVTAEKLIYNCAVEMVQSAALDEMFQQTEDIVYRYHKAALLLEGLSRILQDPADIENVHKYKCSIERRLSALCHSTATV
Experiment: radiometric filter-binding kinase assay
Conditions: compound 10.0 µM
Property: residual activity (%)

# Compound, Property, Numeric value
data = [
    ("Nc1cccc2c1CN(C1CCC(=O)NC1=O)C2=O (configuration not stated)", "residual activity", 105),
    ("COC(=O)/C=C/C(=O)OC", "residual activity", 106),
    ("CCn1c(-c2nonc2N)nc2cncc(CNC3CCNCC3)c21", "residual activity", 73),
    ("Cc1ccc(-c2ccc3c(ccc4sc5c(c43)NC[C@@H](C)NC5=O)n2)cn1", "residual activity", 54),
    ("COc1cc(C(=O)N2CCOCC2)c(F)cc1Nc1ncc(C(F)(F)F)c(NC2CC2)n1", "residual activity", 70),
]

A. CC1=C(CO)C(=O)O[C@@H]([C@@H](C)[C@H]2CC[C@H]3[C@@H]4C[C@H]5O[C@]56[C@@H](O)C=CC(=O)[C@]6(C)C4CC[C@]23C)C1 (some centres not stated)
B. CCNc1nc(Nc2cc(F)c(C(=O)N3CCOCC3)cc2OC)ncc1C(F)(F)F
Smaller residual activity value, A vs B ? Indicate which entry you chose by stating its label.
B
(B: 61%, A: 90%)

###

Target: DDR2 (human) (UniProt Q16832)
Sequence (Q16832 whole entry, looked up): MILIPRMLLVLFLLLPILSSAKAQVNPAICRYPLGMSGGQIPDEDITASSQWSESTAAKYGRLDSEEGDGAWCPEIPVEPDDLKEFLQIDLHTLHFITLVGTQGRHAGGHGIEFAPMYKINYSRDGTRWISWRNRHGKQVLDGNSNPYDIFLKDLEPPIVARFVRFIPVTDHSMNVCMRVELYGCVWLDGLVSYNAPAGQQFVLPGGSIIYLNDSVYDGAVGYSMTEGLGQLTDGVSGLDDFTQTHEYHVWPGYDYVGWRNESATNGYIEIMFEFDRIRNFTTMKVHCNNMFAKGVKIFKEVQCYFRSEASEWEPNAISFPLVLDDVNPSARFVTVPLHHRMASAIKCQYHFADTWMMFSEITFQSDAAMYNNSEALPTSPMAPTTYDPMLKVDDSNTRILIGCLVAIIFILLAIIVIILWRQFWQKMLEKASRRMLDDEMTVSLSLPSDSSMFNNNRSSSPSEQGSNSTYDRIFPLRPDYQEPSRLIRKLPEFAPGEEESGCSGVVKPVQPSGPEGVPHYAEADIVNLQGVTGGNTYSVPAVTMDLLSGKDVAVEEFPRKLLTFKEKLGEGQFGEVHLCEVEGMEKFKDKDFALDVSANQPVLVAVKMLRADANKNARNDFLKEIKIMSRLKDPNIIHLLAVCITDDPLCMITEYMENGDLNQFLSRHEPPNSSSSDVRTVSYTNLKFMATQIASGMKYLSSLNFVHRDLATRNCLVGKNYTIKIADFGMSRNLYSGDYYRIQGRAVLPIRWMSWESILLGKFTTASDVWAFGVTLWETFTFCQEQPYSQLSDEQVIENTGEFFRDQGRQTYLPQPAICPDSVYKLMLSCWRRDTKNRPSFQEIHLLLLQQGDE
Test: radiometric filter-binding kinase assay
Settings: compound 0.1 µM
Property: residual activity (%)

Some solved cases for reference:
# Compound, residual activity (%)
data = [
    ("CC1=C(CO)C(=O)O[C@@H]([C@@H](C)[C@H]2CC[C@H]3[C@@H]4C[C@H]5O[C@]56[C@@H](O)C=CC(=O)[C@]6(C)C4CC[C@]23C)C1 (some centres undefined)", 105),
    ("CCn1c(-c2nonc2N)nc2cncc(CNC3CCNCC3)c21", 108),
]

1. COc1ccc(N(C(=O)Nc2c(C)cccc2C)c2cc(Nc3ccc(N4CCN(C)CC4)cc3)ncn2)c(OC)c1
2. CN(C)C/C=C/C(=O)Nc1cccc(C(=O)Nc2ccc(Nc3nccc(-c4cccnc4)n3)cc2)c1
Which value of residual activity is greater, the one for 1 or the one for 2 ? Indicate which entry you chose by stating its label.
2

###

Target: AURKA (human) (UniProt O14965)
Sequence (O14965 whole entry, looked up): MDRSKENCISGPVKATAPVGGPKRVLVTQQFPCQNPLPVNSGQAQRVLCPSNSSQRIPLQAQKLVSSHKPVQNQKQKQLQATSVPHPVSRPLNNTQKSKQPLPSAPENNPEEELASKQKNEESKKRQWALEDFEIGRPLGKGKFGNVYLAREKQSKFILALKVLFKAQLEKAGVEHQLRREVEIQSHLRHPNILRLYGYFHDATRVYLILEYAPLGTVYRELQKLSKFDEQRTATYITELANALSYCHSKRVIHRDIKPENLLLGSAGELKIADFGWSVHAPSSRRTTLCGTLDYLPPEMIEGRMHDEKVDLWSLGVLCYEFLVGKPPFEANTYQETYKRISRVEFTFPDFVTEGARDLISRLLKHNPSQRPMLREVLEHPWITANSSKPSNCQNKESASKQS
Experiment: radiometric filter-binding kinase assay
Conditions: compound 0.1 µM
Property: residual activity (%)

# Compound, residual activity, %
measured = [
    ("O=C(NCCCNc1nc(Nc2cccc(CN3CCOCC3)c2)ncc1C1CC1)C1CCC1", 87),
]

1. O=C(O)c1ccc(-c2c[nH]c3ncc(-c4ccccc4)cc23)cc1C1CCCC1
2. CNC(=O)C1[C@H]2O[C@@](C)([C@@H]1N)n1c3ccccc3c3c4c(c5c6ccccc6n2c5c31)C(=O)NC4 (some centres undefined)
Smaller residual activity value, 1 vs 2 ? Indicate which entry you chose by stating its label.
2
(2: 4%, 1: 78%)

###

Target: IRAK4 (human)
Assay: radiometric filter-binding kinase assay
Conditions: compound 10.0 µM
Property: residual activity (%)

Some solved cases for reference:
# Mol smiles, Property, Numeric value
records = [
    ("C=CC(=O)N1CCC[C@@H](n2nc(-c3ccc(Oc4ccccc4)cc3)c3c(N)ncnc32)C1", "residual activity", 86),
    ("O=C(NOC[C@H](O)CO)c1ccc(F)c(F)c1Nc1ccc(I)cc1Cl", "residual activity", 100),
    ("CN1C(=O)[C@@H](Cc2c[nH]c3ccccc23)NC1=S", "residual activity", 99),
]

1. NC1(c2ccc(-c3nc4ccn5c(=O)[nH]nc5c4cc3-c3ccccc3)cc2)CCC1
2. Cc1ccc(Sc2cnc(Nc3cccc(Br)n3)s2)cc1C(=O)N1CCN(C(=O)CN)CC1
3. O=C(Nc1ccccc1-c1cn2c(CN3CCNCC3)csc2n1)c1cnc2ccccc2n1
4. NC(=O)c1cc2c(-c3cccc(-c4ccccc4)c3)cnc(N)c2s1
// sort entries: residual activity, high to low To answer, write out the labels according to the requested order.
1, 4, 3, 2
